Molecular target: wild-type human cardiac sodium channel, hNav1.5 (Homo sapiens, UniProt Q14524)
Sequence (Q14524 whole entry): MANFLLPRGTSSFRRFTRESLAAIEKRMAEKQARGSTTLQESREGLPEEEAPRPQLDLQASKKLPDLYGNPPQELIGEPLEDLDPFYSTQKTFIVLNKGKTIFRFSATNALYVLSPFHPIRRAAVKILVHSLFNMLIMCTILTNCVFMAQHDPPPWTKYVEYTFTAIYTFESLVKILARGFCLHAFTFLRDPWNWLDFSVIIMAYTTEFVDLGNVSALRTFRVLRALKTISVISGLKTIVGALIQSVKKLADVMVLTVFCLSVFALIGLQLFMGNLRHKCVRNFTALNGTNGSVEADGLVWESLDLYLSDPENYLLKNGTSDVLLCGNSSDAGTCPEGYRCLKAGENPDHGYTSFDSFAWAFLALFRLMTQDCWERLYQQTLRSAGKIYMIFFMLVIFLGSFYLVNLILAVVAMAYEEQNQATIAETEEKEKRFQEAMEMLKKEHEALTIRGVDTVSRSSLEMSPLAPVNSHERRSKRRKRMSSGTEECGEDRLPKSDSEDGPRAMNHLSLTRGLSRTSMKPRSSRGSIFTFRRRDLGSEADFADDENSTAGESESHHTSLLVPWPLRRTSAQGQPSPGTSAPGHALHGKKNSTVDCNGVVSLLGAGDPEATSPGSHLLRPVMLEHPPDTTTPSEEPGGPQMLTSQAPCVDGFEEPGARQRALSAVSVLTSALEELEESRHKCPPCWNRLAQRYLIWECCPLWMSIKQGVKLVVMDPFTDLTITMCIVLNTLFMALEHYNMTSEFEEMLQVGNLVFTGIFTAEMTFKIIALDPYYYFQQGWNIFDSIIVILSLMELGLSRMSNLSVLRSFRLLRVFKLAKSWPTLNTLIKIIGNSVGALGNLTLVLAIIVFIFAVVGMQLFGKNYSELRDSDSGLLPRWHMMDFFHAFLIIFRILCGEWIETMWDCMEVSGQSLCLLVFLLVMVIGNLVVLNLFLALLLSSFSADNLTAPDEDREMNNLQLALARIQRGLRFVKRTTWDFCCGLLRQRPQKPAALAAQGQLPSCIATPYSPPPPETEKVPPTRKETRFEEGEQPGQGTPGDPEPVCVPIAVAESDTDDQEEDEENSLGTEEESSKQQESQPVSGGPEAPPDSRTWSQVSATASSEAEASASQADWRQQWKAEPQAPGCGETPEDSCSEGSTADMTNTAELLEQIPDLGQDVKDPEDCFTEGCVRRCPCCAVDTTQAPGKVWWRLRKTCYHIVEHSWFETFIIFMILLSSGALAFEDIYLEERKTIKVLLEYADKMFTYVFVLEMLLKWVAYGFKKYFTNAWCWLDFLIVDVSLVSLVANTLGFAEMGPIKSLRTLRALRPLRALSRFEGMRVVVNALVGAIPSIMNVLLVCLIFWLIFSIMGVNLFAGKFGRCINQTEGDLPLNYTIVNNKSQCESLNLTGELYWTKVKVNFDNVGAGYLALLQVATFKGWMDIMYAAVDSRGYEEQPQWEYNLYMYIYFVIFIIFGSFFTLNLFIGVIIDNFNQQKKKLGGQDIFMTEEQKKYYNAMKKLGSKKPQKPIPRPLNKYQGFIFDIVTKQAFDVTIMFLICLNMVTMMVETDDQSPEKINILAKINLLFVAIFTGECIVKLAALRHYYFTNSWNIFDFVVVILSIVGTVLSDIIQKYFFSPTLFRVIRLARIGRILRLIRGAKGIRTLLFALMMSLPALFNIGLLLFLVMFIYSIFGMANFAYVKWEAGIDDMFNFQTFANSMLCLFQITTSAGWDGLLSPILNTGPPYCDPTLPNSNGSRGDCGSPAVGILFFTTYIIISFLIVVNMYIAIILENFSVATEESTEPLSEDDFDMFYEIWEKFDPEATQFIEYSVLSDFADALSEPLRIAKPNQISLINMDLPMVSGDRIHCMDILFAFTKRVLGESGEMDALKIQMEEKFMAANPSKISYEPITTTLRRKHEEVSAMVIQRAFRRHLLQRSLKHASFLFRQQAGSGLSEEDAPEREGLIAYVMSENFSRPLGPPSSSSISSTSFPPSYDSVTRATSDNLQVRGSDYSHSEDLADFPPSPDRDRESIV
Assay: Late INa screening assay (automated whole cell patch clamp, PatchXpress)
Format: cell-based
Settings: compound at 1 μM; HEK293 cells expressing hNav1.5; late INa generated with 10 μM Tefluthrin (or 50 nM ATX II); read-out: LateINa_1 uM (percent block of late INa)
Experimental: The late sodium current (Late INa) and peak sodium current (Peak INa) assays are performed on an automated electrophysiology platform, PatchXpress 7000A (MDS Analytical Technologies, Sunnyvale, Calif.), which uses the whole cell patch clamp technique to measure currents through the cell membrane of up to 16 cells at a time. […]
assayEndpoint: inhibition at 1 µM
Please answer using the number first and the unit second.

Some molecules with known inhibition at 1 µM results, for comparison:
Problem: Which inhibition at 1 µM is reported for this molecule? FC(F)(F)c1nnc2ccc(-c3ccc(Oc4ccncc4)cc3)cn12
Solution: 20.1%

Problem: Another: FC(F)(F)COCc1nnc2ccc(-c3ccc(OC(F)(F)F)cc3)cn12
Solution: 48.4%

Problem: Another: Cc1ccc(COCc2nnc3ccc(-c4ccc(OC(F)(F)F)cc4)cn23)c(C)c1
Solution: 75.8%

Problem: Another: CSc1ccc(-c2ccc3cnc(C(F)(F)F)n3c2)cn1
Solution: 32.3%

Problem: Another: COc1cc(C(F)(F)F)ccc1-c1ccc2nnc(C(F)(F)F)n2c1
Solution: 49.3%

Problem: Another: FC(F)(F)Oc1ccc(-c2ccc3nnc(C(F)(F)OCc4ccccc4-n4cccn4)n3c2)cc1
Solution: 70.9%

***
Problem: Which inhibition at 1 µM is reported for this molecule? OCCOC(F)(F)c1nnc2ccc(-c3ccc(OC(F)(F)F)cc3)cn12
Solution: 18.3%

Problem: Another: CCc1nnc2ccc(-c3ccc(Oc4ccccc4)cc3)nn12
Solution: 54.5%

Problem: Another: c1ccc(Oc2ccc(-c3ccc4nnnn4c3)cc2)cc1
Solution: 73.2%

Problem: Another: CC(C)Cc1nc(COC(F)(F)c2nnc3ccc(-c4ccc(OC(F)(F)F)cc4)cn23)no1
Solution: 60.3%
